// data source = patent US20150306081A1

# System: non-Pgp expressing KB31 cells
# Assay protocol: MTT proliferation assay, KB31 cells
# Type: cell-based, Human
# Settings: Homo sapiens, KB 3-1, 72 h incubation
Metric: IC50 (nM)
Give your result in nM as a bare value.

Ask | Given CC[C@]1(O)C[C@@H]2CN(CCc3c([nH]c4ccccc34)[C@@](C(=O)OC)(c3cc4c(cc3OC)N(C)[C@H]3[C@@](O)(C(=O)OC)[C@H](OC(C)=O)[C@]5(CC)C=CCN6CC[C@]43[C@@H]65)C2)C1 [VBL, Vinblastine] , state its recorded IC50.
Reply | 130

Ask | Look up IC50 for this molecule: COc1cccc2c1C(=O)c1c(O)c3c(c(O)c1C2=O)C[C@@](O)(C(=O)CO)C[C@@H]3O[C@H]1C[C@H](N)[C@H](O)[C@H](C)O1 [DOX, Doxorubicin]
Reply | 440
